Test system: PC-3 prostate
MEASUREMENT NOTES: NCI tumour cell line growth inhibition, 48 h
READOUT NAME: TGI

>  <COMPOUND>
CC(NC(=O)Cc1ccc(C(F)(F)P(=O)(OCc2ccc([N+](=O)[O-])o2)N(C)CCCCCl)cc1)c1ccc(OCC2CCCCC2)c(C(N)=O)c1 (stereo unspecified)

>  <TEST RESULT>
> 34.8 µM

$$$$
>  <COMPOUND>
O=c1[nH]nc(-c2ccccc2)n1/N=C/c1cccc([N+](=O)[O-])c1

>  <TEST RESULT>
> 100 µM

$$$$
>  <COMPOUND>
CN(C)N1C(=O)SCC(c2ccccc2)(c2ccccc2)C1=O

>  <TEST RESULT>
> 100 µM

$$$$
>  <COMPOUND>
CCCCCCCCC/C=C1/CC(CO)(COC(=O)CC(C(C)C)C(C)C)OC1=O (stereo unspecified)

>  <TEST RESULT>
21.3 µM

$$$$
>  <COMPOUND>
CN=C(Nc1ccc(OC)c2ccccc12)SC

>  <TEST RESULT>
> 10 µM

$$$$

In: GET /values?readout=TGI&item= CC(=O)NC1(NC(C)=O)C2CC(C1Cc1ccccc1)C(C)(C)C2C (stereo unspecified)
Out: > 100 µM

In: GET /values?readout=TGI&item= O=C(NN1C(=O)CSC1c1cccc(Cl)c1)C(O)c1ccccc1 (stereo unspecified)
Out: > 100 µM

In: GET /values?readout=TGI&item= Cc1ccc(S(=O)C[C@](NC(=O)OCc2ccccc2)(Sc2ccccc2)C(F)F)cc1 (stereo partly specified)
Out: 74.2 µM

In: GET /values?readout=TGI&item= COC1(C2c3ccccc3CCN2C(=O)OC(C)(C)C)C(=O)C(c2ccccc2)=C1N(C)C (stereo unspecified)
Out: 82.4 µM

In: GET /values?readout=TGI&item= `O=C(N=Nc1ccc(Cl)cc1Cl)NNc1ccc(Cl)cc1Cl`
Out: 34.8 µM

In: GET /values?readout=TGI&item= `O=C(c1ccccc1)N1C(=O)N(c2ccccc2)C(=Nc2ccccc2)C1=Nc1ccccc1`
Out: > 100 µM

In: GET /values?readout=TGI&item= Cc1cccc2oc3c(c(=O)c12)CC(O)C(C)(C)O3 (stereo unspecified)
Out: > 100 µM

In: GET /values?readout=TGI&item= `CC(=O)c1cccc(NC(=O)C(=O)c2c(O)c3ccccc3oc2=O)c1`
Out: > 100 µM

In: GET /values?readout=TGI&item= CC[C@@H](CCCCC1CC[C@H]2CC(=O)C[C@@H]12)OC (stereo partly specified)
Out: > 100 µM

In: GET /values?readout=TGI&item= `Cn1c(=O)n(C)c2cc(CNCCNc3ccnc4cc(Cl)ccc34)ccc21`
Out: > 100 µM

In: GET /values?readout=TGI&item= COC(=O)c1c(CC(Cc2ccc3c(c2)CCCC3)C(=O)O)ccc2c1CCCC2 (stereo unspecified)
Out: > 100 µM

In: GET /values?readout=TGI&item= `Nc1nc2ccc(Sc3ccc4nc(N)[nH]c(=O)c4c3)cc2c(=O)[nH]1`
Out: > 100 µM

In: GET /values?readout=TGI&item= `COc1ccc(-c2c(-c3ccc(OC)cc3)n3c(=O)n(C)c(=O)n23)cc1`
Out: > 100 µM

In: GET /values?readout=TGI&item= O=C1C[C@@]23CCC4(CC2CCC[C@H]3O1)OCCO4 (stereo partly specified)
Out: > 100 µM

In: GET /values?readout=TGI&item= `COc1cc([C@@H]2c3cc4c(cc3[C@H](OC(C)=O)[C@H]3COC(=O)[C@@H]23)OCO4)cc(OC)c1OC`
Out: > 100 µM

In: GET /values?readout=TGI&item= `Nc1ccccc1C#CC(=O)c1cccc(C(F)(F)F)c1`
Out: 12 µM
